# system tested: human recombinant OX2 (hOX2) receptor (Homo sapiens)
# Sequence (O43614 whole entry): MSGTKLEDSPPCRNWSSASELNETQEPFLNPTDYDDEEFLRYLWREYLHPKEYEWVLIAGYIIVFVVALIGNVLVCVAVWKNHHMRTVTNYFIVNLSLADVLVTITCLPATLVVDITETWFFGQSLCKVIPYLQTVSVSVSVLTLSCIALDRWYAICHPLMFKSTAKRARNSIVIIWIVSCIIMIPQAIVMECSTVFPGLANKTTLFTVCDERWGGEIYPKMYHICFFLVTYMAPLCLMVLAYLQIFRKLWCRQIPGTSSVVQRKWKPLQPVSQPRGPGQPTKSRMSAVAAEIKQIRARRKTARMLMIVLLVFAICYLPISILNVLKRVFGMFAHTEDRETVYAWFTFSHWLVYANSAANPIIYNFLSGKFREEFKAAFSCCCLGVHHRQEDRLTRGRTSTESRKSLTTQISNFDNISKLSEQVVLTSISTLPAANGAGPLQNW
# protocol description: IP-1 accumulation assay (IP-One HTRF) in hOX2-CHO cells
# measurement setup: 60 min at 37° C., mean of at least two independent experiments, read-out: EC50_OX2R Category
pEC50: −log10 of the molar value.
Hi there, I'd appreciate the recorded pEC50 for every entry that follows.

Looking up CCNC(=O)N1[C@H](C)C[C@@]2(COCC(=O)N2)[C@@H]1Cc1cccc(-c2cc(F)cc(F)c2)c1F , I found its pEC50 recorded as > 7.00

Looking up CCNC(=O)N1CCCC2(CCCS(=O)(=O)N2)C1CO[C@H]1CC[C@@H](c2ccccc2)CC1 (mixture of isomers) , I found its pEC50 recorded as 6.00 to 7.00

Looking up CCNC(=O)N1CCC[C@]2(CCOC(=O)N2)[C@H]1CO[C@H]1CC[C@@H](c2ccccc2)CC1 (single isomer, unassigned) , I found its pEC50 recorded as < 5.00

Looking up CCNC(=O)N1CCC[C@@]2(CCOC(=O)N2)[C@H]1Cc1cccc(-c2ccccc2)c1 (racemic) , I found its pEC50 recorded as < 5.00

Looking up COc1cccnc1N1[C@H](C)C[C@@]2(COCC(=O)N2)[C@@H]1CO[C@H]1CC[C@@H](c2ccccc2)CC1 , I found its pEC50 recorded as 6.00 to 7.00

Looking up C[C@@H]1C[C@@]2(COCC(=O)N2)[C@H](Cc2cccc(-c3cc(F)cc(F)c3)c2F)N1C(=O)C1CC(F)(F)C1 , I found its pEC50 recorded as 6.00 to 7.00

Looking up C[C@@H]1C[C@@]2(COCC(=O)N2)[C@H](CO[C@H]2CC[C@@H](c3ccccc3)CC2)N1C(=O)C1CCC1 , I found its pEC50 recorded as > 7.00

Looking up CCNC(=O)N1[C@H](C)C[C@@]2(COCC(=O)N2)[C@@H]1CO[C@H]1CC[C@@H](c2ccccc2)CC1 , I found its pEC50 recorded as > 7.00

Looking up CCNC(=O)N1CCCC2(COCC(=O)N2)C1CO[C@H]1CC[C@@H](c2ccccc2)CC1 (mixture of isomers) , I found its pEC50 recorded as > 7.00

Looking up C[C@@H]1C[C@@]2(COCC(=O)N2)[C@H](Cc2cccc(-c3cc(F)cc(F)c3)c2F)N1C(=O)C1CC1F (single isomer, unassigned) [Example 90] , I found its pEC50 recorded as 6.00 to 7.00

Looking up CCNC(=O)N1CCCC2(COC(F)C(=O)N2)C1CO[C@H]1CC[C@@H](c2ccccc2)CC1 (relative stereo) , I found its pEC50 recorded as > 7.00

Looking up COC(=O)N1CCC[C@@]2(COCC(=O)N2)[C@@H]1CO[C@H]1CC[C@@H](c2ccccc2)CC1 (single isomer, unassigned) , I found its pEC50 recorded as 6.00 to 7.00

Looking up CCNC(=O)N1CCC2(COC(=O)N2)C1CO[C@H]1CC[C@@H](c2ccccc2)CC1 (mixture of isomers) , I found its pEC50 recorded as < 5.00
